These measurements were taken from patent US20180237362A1.

test system: human U373 glioblastoma (GBM); assay: MTT antiproliferative assay, U373; type: cell-based; conditions: 72 h treatment, sextuplicates, read-out: GI50 in vitro values, U373
I'd be grateful if you could share measured GI50 for these entries.
Please provide the amount together with its unit, number first.

# input compound: CCOC(=O)/C=C/C1=CCC2C(C)(C)CCC[C@]2(C)[C@@H]1C=O (some centres unmarked) ; wanted: its GI50
37 µM

# input compound: CCOC(=O)C(C)=CC1=CCC2C(C)(C)CCCC2(C)C1C=O (centres unmarked) ; wanted: its GI50
37 µM

# input compound: CC1(C)CCCC2(C)C(C=O)C(C=CC(=O)OCc3ccccc3)=CCC12 (centres unmarked) ; wanted: its GI50
39 µM

# input compound: CC(=O)/C=C/C1=CCC2C(C)(C)CCC[C@]2(C)[C@@H]1C=O (some centres unmarked) ; wanted: its GI50
25 µM

# input compound: CC(C)(C)OC(=O)/C=C/C1=CCC2C(C)(C)CCC[C@]2(C)[C@@H]1C=O (some centres unmarked) ; wanted: its GI50
40 µM

# input compound: COC(=O)/C=C/C=C/C1=CCC2C(C)(C)CCC[C@]2(C)[C@@H]1C=O (some centres unmarked) ; wanted: its GI50
27 µM

# input compound: CC1(C)CCC[C@@]2(C)C1CC=C(/C=C/C#N)[C@H]2C=O (some centres unmarked) ; wanted: its GI50
36 µM

# input compound: `COC(=O)/C=C/C1=CC[C@H]2C(C)(C)CCC[C@]2(C)[C@H]1C=O` ; wanted: its GI50
22 µM
